- Test system: NCI-H460
- test details: Anticancer activity against human NCI-H460 cells assessed as cell growth at 4 ug/mL after 48 hrs by SRB assay relative to control
- Format: functional
- test context: NCI-H460, 48 h, read-out: Activity
property: growth at 4 µg/mL (%)
Numbers only, in %.

{"mol": "COc1ccc2c(Nc3ccc(/C(C)=N/OCCN)cc3)c3ccoc3nc2c1", "property": "growth at 4 µg/mL", "recorded number": 14}
{"mol": "C/C(=N\\OCCCCN1CCOCC1)c1ccc(Nc2c3ccccc3nc3occc23)cc1", "property": "growth at 4 µg/mL", "recorded number": 118}
{"mol": "CC(=O)c1ccc(Nc2c3ccccc3nc3occc23)cc1", "property": "growth at 4 µg/mL", "recorded number": 33}

Value sought for every listed molecule: growth at 4 µg/mL.
1. COc1ccc2c(Nc3ccc(/C(C)=N/OCCN(C)C)cc3)c3c(Cl)coc3nc2c1
2. C/C(=N\OCCN)c1ccc(Nc2c3ccccc3nc3occ(Cl)c23)cc1

1. 74
2. 32

* * *

- test details: Aqueous solubility of the compound by UV/ vis spectrophotometry
- Type: physicochemical
property: solubility (µg/mL)
Numbers only, in µg/mL.

{"mol": "CO/N=C(\\C)c1ccc(Nc2c3ccccc3nc3occc23)cc1", "reading unit": "µg/mL", "recorded number": 8}
{"mol": "CC(=O)c1ccc(Nc2c3ccccc3nc3occc23)cc1", "reading unit": "µg/mL", "recorded number": 6}
{"mol": "C/C(=N\\O)c1ccc(Nc2c3ccccc3nc3occc23)cc1", "reading unit": "µg/mL", "recorded number": 10}

Alright, here's another compound for you.
I am curious: what solubility value has been reported for "C/C(=N\OCCN)c1ccc(Nc2c3ccccc3nc3occc23)cc1.Cl" ?
1050

* * *

For each record, write down the corresponding growth at 20 µg/mL.
- Tested on: NCI-H460
- test details: Anticancer activity against human NCI-H460 cells assessed as cell growth at 20 ug/mL after 48 hrs by SRB assay relative to control
- Format: functional
- test context: NCI-H460, 48 h, read-out: Activity
One number for each entry, in %.

{"mol": "COc1ccc2c(Nc3ccc(/C(C)=N/OCCN4CCCCC4)cc3)c3c(Cl)coc3nc2c1", "growth at 20 µg/mL / %": 3}
{"mol": "COc1ccc2c(Nc3ccc(/C(C)=N/OCCCN(C)C)cc3)c3c(Cl)coc3nc2c1", "growth at 20 µg/mL / %": 4}
{"mol": "CO/N=C(\\C)c1ccc(Nc2c3ccccc3nc3occc23)cc1", "growth at 20 µg/mL / %": 23}
{"mol": "C/C(=N\\OCCN(C)C)c1ccc(Nc2c3ccccc3nc3occc23)cc1", "growth at 20 µg/mL / %": 0}
{"mol": "COc1ccc2c(Nc3ccc(/C(C)=N/OCCCCN4CCOCC4)cc3)c3ccoc3nc2c1", "growth at 20 µg/mL / %": 21}

Value sought for every listed molecule: growth at 20 µg/mL.
1. COc1ccc2c(Nc3ccc(S(N)(=O)=O)cc3)c3c(Cl)coc3nc2c1
2. C/C(=N\O)c1ccc(Nc2c3ccccc3nc3occc23)cc1
3. COc1ccc2c(Nc3ccc(C(=O)NCCN(C)C)cc3)c3c(Cl)coc3nc2c1
4. C/C(=N\OCCN1CCOCC1)c1ccc(Nc2c3ccccc3nc3occ(Cl)c23)cc1
5. C/C(=N\OCCN1CCCC1)c1ccc(Nc2c3ccccc3nc3occc23)cc1
6. COc1ccc2c(Nc3ccc(C(=O)NCCO)cc3)c3c(Cl)coc3nc2c1
7. CNC(=O)c1ccc(Nc2c3ccc(OC)cc3nc3occ(Cl)c23)cc1
8. C/C(=N\OCCN1CCCCC1)c1ccc(Nc2c3ccccc3nc3occc23)cc1

17
21
60
16
1
82
27
-1

Value sought for every listed molecule: growth at 20 µg/mL.
1. COc1ccc2c(Nc3ccc(/C(C)=N/OCCN4CCCC4)cc3)c3c(Cl)coc3nc2c1
2. COc1ccc2c(Nc3ccc(/C(C)=N/OCCN)cc3)c3c(Cl)coc3nc2c1
3. COc1ccc2c(Nc3ccc(/C(C)=N/OCCCN(C)C)cc3)c3ccoc3nc2c1
4. COc1ccc2c(Nc3ccc(/C(C)=N/OCCN4CCOCC4)cc3)c3c(Cl)coc3nc2c1
5. C/C(=N\OCCN1CCCC1)c1ccc(Nc2c3ccccc3nc3occ(Cl)c23)cc1

1. 5
2. 3
3. 5
4. 68
5. -1

Value sought for every listed molecule: growth at 20 µg/mL.
1. COc1ccc2c(Nc3ccc(C(=O)NCCCN(C)C)cc3)c3c(Cl)coc3nc2c1
2. NC(=O)c1ccc(Nc2c3ccccc3nc3occ(Cl)c23)cc1
3. CC(=O)c1ccc(Nc2c3ccccc3nc3occc23)cc1

[36, 97, 30]

* * *

For each record, write down the corresponding growth at 20 µg/mL.
- Tested on: NCI-H460
- test details: Anticancer activity against human NCI-H460 cells assessed as cell growth at 20 ug/mL after 48 hrs by SRB assay relative to control
- Assay type: functional
- test context: NCI-H460, 48 h, read-out: Activity
Give bare numbers, in %.

{"mol": "C/C(=N\\OCCCN(C)C)c1ccc(Nc2c3ccccc3nc3occ(Cl)c23)cc1", "recorded number": 1}
{"mol": "COc1ccc2c(Nc3ccc(/C(C)=N/OCCN)cc3)c3ccoc3nc2c1", "recorded number": 11}
{"mol": "C/C(=N\\OCCCCN1CCOCC1)c1ccc(Nc2c3ccccc3nc3occ(Cl)c23)cc1", "recorded number": 3}
{"mol": "C/C(=N\\OCCCN)c1ccc(Nc2c3ccccc3nc3occc23)cc1", "recorded number": -2}
{"mol": "COc1ccc2c(Nc3ccc(/C(C)=N/OCCN4CCCCC4)cc3)c3ccoc3nc2c1", "recorded number": 9}
{"mol": "C/C(=N\\OCCN(C)C)c1ccc(Nc2c3ccccc3nc3occ(Cl)c23)cc1", "recorded number": -1}
{"mol": "C/C(=N\\OCCCCN1CCOCC1)c1ccc(Nc2c3ccccc3nc3occc23)cc1", "recorded number": -1}
{"mol": "C/C(=N\\OCCN)c1ccc(Nc2c3ccccc3nc3occ(Cl)c23)cc1", "recorded number": -1}

Value sought for every listed molecule: growth at 20 µg/mL.
1. C/C(=N\OCCN1CCCCC1)c1ccc(Nc2c3ccccc3nc3occ(Cl)c23)cc1
2. NS(=O)(=O)c1ccc(Nc2c3ccccc3nc3occ(Cl)c23)cc1
3. C/C(=N\OCCCN)c1ccc(Nc2c3ccccc3nc3occ(Cl)c23)cc1
4. COc1ccc2c(Nc3ccc(/C(C)=N/OCCN4CCCC4)cc3)c3ccoc3nc2c1

1. 3
2. 79
3. 0
4. 5

Value sought for every listed molecule: growth at 20 µg/mL.
1. COc1ccc2c(Nc3ccc(/C(C)=N/OCCN4CCOCC4)cc3)c3ccoc3nc2c1
2. C/C(=N\OCCCN(C)C)c1ccc(Nc2c3ccccc3nc3occc23)cc1
3. C/C(=N\OCCN)c1ccc(Nc2c3ccccc3nc3occc23)cc1

44
7
-1

Value sought for every listed molecule: growth at 20 µg/mL.
1. COc1ccc2c(Nc3ccc(/C(C)=N/OCCCN)cc3)c3ccoc3nc2c1
2. COc1ccc2c(Nc3ccc(C(N)=O)cc3)c3c(Cl)coc3nc2c1
3. COc1ccc2c(Nc3ccc(/C(C)=N/OCCCCN4CCOCC4)cc3)c3c(Cl)coc3nc2c1

16
77
20

* * *

- tested target: DNA topoisomerase 2-alpha (Homo sapiens)
- test details: Inhibition of human topoisomerase 2 mediated relaxation of super coiled pBR322 plasmid DNA at 30 uM after 30 mins by agarose gel electrophoresis
Activity calls are given as the source filed them. The calls are words filed in the database; no cut-off is given here.
property: inhibition

Worked examples follow.
{"mol": "C/C(=N\\OCCN)c1ccc(Nc2c3ccccc3nc3occc23)cc1", "inhibition": "inactive"}
{"mol": "C/C(=N\\OCCCN)c1ccc(Nc2c3ccccc3nc3occc23)cc1", "inhibition": "inactive"}
{"mol": "C/C(=N\\OCCCN)c1ccc(Nc2c3ccccc3nc3occ(Cl)c23)cc1", "inhibition": "inactive"}
{"mol": "C/C(=N\\OCCN)c1ccc(Nc2c3ccccc3nc3occ(Cl)c23)cc1", "inhibition": "inactive"}
{"mol": "COc1ccc2c(Nc3ccc(/C(C)=N/OCCN)cc3)c3c(Cl)coc3nc2c1", "inhibition": "inactive"}

I am curious: what inhibition value has been reported for "COc1ccc2c(Nc3ccc(/C(C)=N/OCCN)cc3)c3ccoc3nc2c1" ?
inactive

* * *

- test details: Half life in fasted CD-1(Crl) mouse at 2 mg/kg, iv administered as single dose measured after 9 to 27 hrs post dose
- Type: ADME, organism-based
- Parameters: dose 2 mg/kg, route intravenous
- test context: in vivo
property: half-life
The number alone won't do; follow it with the unit.

I am curious: what half-life value has been reported for "C/C(=N\OCCN)c1ccc(Nc2c3ccccc3nc3occc23)cc1.Cl" ?
4.9 h

* * *

- test details: Oral bioavailability in fasted CD-1(Crl) mouse at 20 mg/kg administered as single dose
- Format: ADME, organism-based
- test context: in vivo
property: bioavailability (%)
One number for each entry, in %.

I am curious: what bioavailability value has been reported for "C/C(=N\OCCN)c1ccc(Nc2c3ccccc3nc3occc23)cc1.Cl" ?
57.1
